Just for reference, ChEMBL document CHEMBL5131517 is where these values come from.

- measuredTarget: 5-hydroxytryptamine receptor 2C (Homo sapiens)
- Sequence (P28335 whole entry): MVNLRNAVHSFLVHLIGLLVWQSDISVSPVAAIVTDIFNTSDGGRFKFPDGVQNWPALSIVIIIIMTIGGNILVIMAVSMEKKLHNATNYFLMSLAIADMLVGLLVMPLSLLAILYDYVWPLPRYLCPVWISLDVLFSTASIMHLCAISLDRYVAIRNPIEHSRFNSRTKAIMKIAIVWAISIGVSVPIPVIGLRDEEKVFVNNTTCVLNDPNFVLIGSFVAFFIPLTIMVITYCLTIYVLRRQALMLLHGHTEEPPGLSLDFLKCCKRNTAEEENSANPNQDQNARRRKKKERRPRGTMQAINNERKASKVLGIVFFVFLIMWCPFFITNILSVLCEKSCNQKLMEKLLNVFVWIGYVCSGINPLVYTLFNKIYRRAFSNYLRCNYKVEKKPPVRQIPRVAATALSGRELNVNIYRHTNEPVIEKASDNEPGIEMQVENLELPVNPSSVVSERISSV
- methodSummary: Agonist activity at human 5HT2C receptor stably expressed in Flp-In-T-REx-293 cells assessed as increase in Gq-mediated calcium flux by Fluo-4 direct dye based FLIPR Tetra assay
- Format: functional, cell-based
- conditionParameters: read-out: EC50
pEC50: −log10 of the molar value.
Overview of reported pEC50 across a group of compounds:

- compound: "CCCC1NCCc2c1[nH]c1ccc(F)cc21 (stereo not drawn)"
  op: "<"
  pEC50: 5.00
- compound: "COc1ccc(C2NCCc3c2[nH]c2ccc(O)cc32)c(O)c1 (stereo not drawn)"
  op: "="
  pEC50: 9.10
- compound: "Oc1c(Cl)cccc1C1NCCc2c1[nH]c1ccc(F)cc21 (stereo not drawn)"
  op: "="
  pEC50: 7.11
- compound: "Oc1ccccc1C1NCCc2c1[nH]c1ccc(F)cc21 (stereo not drawn)"
  op: "="
  pEC50: 8.37
- compound: "Cc1noc(C)c1C1NCCc2c1[nH]c1ccc(Cl)cc21 (stereo not drawn)"
  op: "="
  pEC50: 6.72
- compound: "Oc1ccc(O)c(C2NCCc3c2[nH]c2ccc(F)cc32)c1 (stereo not drawn)"
  op: "="
  pEC50: 7.38
- compound: "Clc1ccc2[nH]c3c(c2c1)CCNC3c1cncnc1 (stereo not drawn)"
  op: "="
  pEC50: 6.38
- compound: "Clc1ccc2[nH]c3c(c2c1)CCNC3c1ccccc1 (stereo not drawn)"
  op: "="
  pEC50: 7.16

----------
- measuredTarget: 5-hydroxytryptamine receptor 2C (Homo sapiens)
- methodSummary: Agonist activity at human 5HT2C receptor stably expressed in Flp-In-T-REx-293 cells assessed as maximal Gq-mediated calcium flux by Fluo-4 direct dye based FLIPR Tetra assay relative to control
- Format: functional, cell-based
- conditionParameters: filed as agonist
propertyName: Emax (%)

- molecule: "Cc1cccc(C2NCCc3c2[nH]c2ccc(O)cc32)c1 (stereo not drawn)"
  measuredTarget: "5-hydroxytryptamine receptor 2C (Homo sapiens)"
  measuredNumber: 99.1
- molecule: "COc1ccc2cc(C3NCCc4c3[nH]c3ccc(F)cc43)ccc2c1 (stereo not drawn)"
  measuredTarget: "5-hydroxytryptamine receptor 2C (Homo sapiens)"
  measuredNumber: 76.3
- molecule: "Oc1c(Br)cccc1C1NCCc2c1[nH]c1ccc(Cl)cc21 (stereo not drawn)"
  measuredTarget: "5-hydroxytryptamine receptor 2C (Homo sapiens)"
  measuredNumber: 107
- molecule: "Clc1ccc2[nH]c3c(c2c1)CCNC3c1ccccc1 (stereo not drawn)"
  measuredTarget: "5-hydroxytryptamine receptor 2C (Homo sapiens)"
  measuredNumber: 98
- molecule: "Oc1ccc2[nH]c3c(c2c1)CCNC3c1cc(Br)ccc1O (stereo not drawn)"
  measuredTarget: "5-hydroxytryptamine receptor 2C (Homo sapiens)"
  measuredNumber: 104
- molecule: "COc1ccc(C2NCCc3c2[nH]c2ccc(F)cc32)c(OC)c1 (stereo not drawn)"
  measuredTarget: "5-hydroxytryptamine receptor 2C (Homo sapiens)"
  measuredNumber: 100
- molecule: "Cc1cccc(C2NCCc3c2[nH]c2ccc(Cl)cc32)c1 (stereo not drawn)"
  measuredTarget: "5-hydroxytryptamine receptor 2C (Homo sapiens)"
  measuredNumber: 89.1
- molecule: "Clc1ccc2[nH]c3c(c2c1)CCNC3C(c1ccccc1)c1ccccc1 (stereo not drawn)"
  measuredTarget: "5-hydroxytryptamine receptor 2C (Homo sapiens)"
  measuredNumber: 106
- molecule: "Cc1ccc(C2NCCc3c2[nH]c2ccc(O)cc32)cc1 (stereo not drawn)"
  measuredTarget: "5-hydroxytryptamine receptor 2C (Homo sapiens)"
  measuredNumber: 95
- molecule: "Oc1cc(Br)ccc1C1NCCc2c1[nH]c1ccc(Cl)cc21 (stereo not drawn)"
  measuredTarget: "5-hydroxytryptamine receptor 2C (Homo sapiens)"
  measuredNumber: 107
- molecule: "Fc1ccc2[nH]c3c(c2c1)CCNC3c1cccs1 (stereo not drawn)"
  measuredTarget: "5-hydroxytryptamine receptor 2C (Homo sapiens)"
  measuredNumber: 102
- molecule: "Oc1ccc2[nH]c3c(c2c1)CCNC3c1cc(Cl)ccc1O (stereo not drawn)"
  measuredTarget: "5-hydroxytryptamine receptor 2C (Homo sapiens)"
  measuredNumber: 97.1
- molecule: "Clc1ccc2[nH]c3c(c2c1)CCNC3c1ccccc1Cl (stereo not drawn)"
  measuredTarget: "5-hydroxytryptamine receptor 2C (Homo sapiens)"
  measuredNumber: 109
- molecule: "Oc1ccc2[nH]c3c(c2c1)CCNC3c1ccccc1O (stereo not drawn)"
  measuredTarget: "5-hydroxytryptamine receptor 2C (Homo sapiens)"
  measuredNumber: 103
- molecule: "Oc1cc(Br)ccc1C1NCCc2c1[nH]c1ccc(F)cc21 (stereo not drawn)"
  measuredTarget: "5-hydroxytryptamine receptor 2C (Homo sapiens)"
  measuredNumber: 111
- molecule: "Clc1ccc2[nH]c3c(c2c1)CCNC3c1ccc(Br)s1 (stereo not drawn)"
  measuredTarget: "5-hydroxytryptamine receptor 2C (Homo sapiens)"
  measuredNumber: 104
- molecule: "Oc1cccc(C2NCCc3c2[nH]c2ccc(O)cc32)c1 (stereo not drawn)"
  measuredTarget: "5-hydroxytryptamine receptor 2C (Homo sapiens)"
  measuredNumber: 95.4
- molecule: "Oc1ccc2[nH]c3c(c2c1)CCNC3c1ccccc1C(F)(F)F (stereo not drawn)"
  measuredTarget: "5-hydroxytryptamine receptor 2C (Homo sapiens)"
  measuredNumber: 100
- molecule: "Clc1ccc2[nH]c3c(c2c1)CCNC3c1ccccc1Br (stereo not drawn)"
  measuredTarget: "5-hydroxytryptamine receptor 2C (Homo sapiens)"
  measuredNumber: 98.4
- molecule: "Cn1ccnc1C1NCCc2c1[nH]c1ccc(O)cc21 (stereo not drawn)"
  measuredTarget: "5-hydroxytryptamine receptor 2C (Homo sapiens)"
  measuredNumber: 87.1
- molecule: "Cc1cccc(C2NCCc3c2[nH]c2ccc(F)cc32)c1 (stereo not drawn)"
  measuredTarget: "5-hydroxytryptamine receptor 2C (Homo sapiens)"
  measuredNumber: 114
- molecule: "Oc1ccc(Br)cc1C1NCCc2c1[nH]c1ccc(F)cc21 (stereo not drawn)"
  measuredTarget: "5-hydroxytryptamine receptor 2C (Homo sapiens)"
  measuredNumber: 101
- molecule: "Oc1ccc(C2NCCc3c2[nH]c2ccc(Cl)cc32)cc1 (stereo not drawn)"
  measuredTarget: "5-hydroxytryptamine receptor 2C (Homo sapiens)"
  measuredNumber: 99.4

----------
Overview of reported Emax across a group of compounds:
- measuredTarget: 5-hydroxytryptamine receptor 2B (Homo sapiens, UniProt P41595)
- Sequence (P41595 whole entry): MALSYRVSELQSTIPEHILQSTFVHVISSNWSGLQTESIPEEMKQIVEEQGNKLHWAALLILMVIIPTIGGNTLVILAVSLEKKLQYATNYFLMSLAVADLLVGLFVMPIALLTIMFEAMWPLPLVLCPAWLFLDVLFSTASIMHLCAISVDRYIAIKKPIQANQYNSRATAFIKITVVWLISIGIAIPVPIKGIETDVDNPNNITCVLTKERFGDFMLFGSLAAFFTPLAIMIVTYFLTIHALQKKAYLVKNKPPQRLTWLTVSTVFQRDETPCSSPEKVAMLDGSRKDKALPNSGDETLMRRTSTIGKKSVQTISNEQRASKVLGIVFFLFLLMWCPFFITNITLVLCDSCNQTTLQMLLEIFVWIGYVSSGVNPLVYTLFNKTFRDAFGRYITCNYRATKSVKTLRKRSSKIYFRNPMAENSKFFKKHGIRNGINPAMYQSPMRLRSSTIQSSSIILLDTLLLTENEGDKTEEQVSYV
- methodSummary: Agonist activity at human 5HT2B receptor stably expressed in Flp-In-T-REx-293 cells assessed as maximal Gq-mediated calcium flux by Fluo-4 direct dye based FLIPR Tetra assay relative to control
- Format: functional, cell-based
- conditionParameters: filed as agonist
propertyName: Emax (%)

- compound: "COc1ccc(C2NCCc3c2[nH]c2ccc(F)cc32)c(OC)c1 (stereo not drawn)"
  u: "%"
  measuredNumber: 91.3
- compound: "Oc1ccc(Br)cc1C1NCCc2c1[nH]c1ccc(Cl)cc21 (stereo not drawn)"
  u: "%"
  measuredNumber: 111
- compound: "COc1ccc(C2NCCc3c2[nH]c2ccc(Cl)cc32)c(O)c1 (stereo not drawn)"
  u: "%"
  measuredNumber: 99.4
